Origin of the recorded values: PubChem BioAssay (NCI)

System: NCI-H226 lung
Assay: NCI-60 one-dose screen, 48 h
Details: 10 µM unless noted
About 83,000 compounds went through this panel and 20% of them were active in at least one assay; those are over-represented in the sample as a whole. Calls of active or inactive are those of the source. The calls were made as follows: active = growth percent below 10; inactive = the rest.
Pick from T (active), F (inactive) when you respond.

A selection of reference data follows.
What did the test return for N=C(N)c1ccc(-c2ccc(-c3ccc4ccccc4c3)s2)cc1 ?
F

What was the test verdict on COC1=C(OC)C(=O)C(CCCCCCCCCC[P+](c2ccccc2)(c2ccccc2)c2ccccc2)=C(C)C1=O ?
T

Hi team, can someone confirm the assay call for COc1cc(Nc2nc(N[C@H]3CCCC[C@@H]3N)nc3cc[nH]c(=O)c23)cc(OC)c1 ?
T

Continuing:
// param item: CCN(CC)CCOC(=O)C(c1ccccc1)(c1ccccc1)C(C)C ; yields the recorded call
F

Please share the test call associated with CN(C[C@H]1Cc2c(cccc2N2CCN(c3ncccn3)CC2)CN1)[C@H]1CCCc2cccnc21 .
F

State the result this test recorded for O=c1[nH]c2ccc(Br)cc2c2c1C(c1ccc(Cl)cc1)c1c(ncn3nc(-c4ccco4)nc13)O2 (configuration not stated) .
F

Hi, do you know how COc1ccc(C(=O)c2cc(OC)c3c(c2)OCO3)cc1O came out in this test?
F

Please let me know the test result on file for Cc1[nH]c2ccc(F)cc2c1CCNC(=O)C1CCN(C(=O)c2ccccc2)CC1 .
F

What outcome does the record of this test show for C=C1C(=O)O[C@H]2[C@H]1CC/C(Cn1cc(-c3cccc(Cl)c3)nn1)=C\CC[C@@]1(C)O[C@@H]21 ?
T

Which outcome was assigned to Cn1ncc2c(Sc3ccc(Cl)cc3)ncnc21 in this test?
F

# fetch the recorded call for COc1ccc(-c2nc(SCCC(C)C)nc(Nc3ccc(F)c(Cl)c3)c2C#N)cc1 here
F

Could you check what this test reported for O=C(Nc1cccc(-n2cc(-c3ccncc3)c(-c3ccc(Cl)c(O)c3)n2)c1)Nc1ccc(Cl)c(C(F)(F)F)c1 ?
T

Answer briefly: the call reported for Cc1nc2c3c(ncn2n1)Oc1c(c(=O)[nH]c2ccccc12)C3c1ccc(Cl)cc1 (configuration not stated) in this assay.
F

// return assay outcome for Nc1nc(Nc2cc(Cl)cc(Cl)c2)nn1S(=O)(=O)c1ccc2ccccc2c1
F

State the result this test recorded for CCCC(=O)Oc1ccc(/C(=C(\C)c2ccccc2)c2ccc(OCCN(CC)CC)cc2)cc1 .
F

Short answer needed: outcome of this test for COc1cc(-c2nc(N=Nc3c(O)[nH]c4ccc(Br)cc34)[nH]c(=O)c2C#N)cc(OC)c1OC ?
F

Which outcome was entered for the compound COc1ccc2[nH]c(=O)c(/C=N/Nc3nc(-c4ccccc4)cs3)c(O)c2c1 in this test?
F

Query: recorded result category for COc1ccc(-n2c(=O)sc3c(Cl)nc(C)nc32)c(OC)c1 in this test
F

Recorded call for CC1CCC(C)N(C)C1 (configuration not stated) ?
F

---

Tested on: HOP-92 NSCLC
Experiment: NCI-60 one-dose screen, 48 h
Settings: 10 µM unless noted
The panel holds about 83,000 compounds, 20% with a hit somewhere; the sample as a whole holds those more often. Calls of active or inactive are those of the source. Rule for the calls: active = growth percent below 10; inactive = the rest.
Answer with one of the outcomes given here: YES = active, NO = inactive

Can you look up the reported call for COc1ccc2[nH]c(=O)c(/C=N/Nc3nc(-c4ccccc4)cs3)c(O)c2c1 for me?
NO

Continuing:
Tell me the assay call for O=C(Nc1ccncc1)C(=O)c1cn(S(=O)(=O)c2ccccc2F)c2ccccc12 please.
NO

Tell me the assay call for O=c1cc/c(=N\Nc2ccccc2)c(=O)/c1=N/Nc1ccccc1 please.
YES

Lab log entry: COc1ccc(S(=O)(=O)NCCCNc2nccc(-c3c(-c4cccc([N+](=O)[O-])c4)nc4sccn34)n2)cc1 — outcome as called in the assay?
NO

Test call for this molecule, please: CCOC(=O)c1cc(C(=O)c2cc(OC)c(OC)c(OC)c2)n2c1ccc1ccccc12
NO

Per the records of this test, what outcome belongs to S=C1CC(=S)NC(=S)N1 ?
NO

Each molecule tested received a call. Report the one for Cc1cc(C(C)(C)C)ccc1S .
NO
